- MEASUREMENT PROTOCOL: growth suppression of beta-catenin knockout HCT116, pilot screen, human colon tumor cells (AID 823);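 note: 0% = wells killed by 20 µM Hyamine and 100% = untreated DMSO cell wells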
- EXPERIMENTAL CONTEXT: CellTiter-Glo, 60 h, at 10 µM, active compounds read low
Records with an inconclusive call do not appear.
Kindly supply the reported viability values for the records listed here.
Numeric answer only, unit % assumed.

Record summary for `CC(C)OC(=O)CSc1nnc(-c2ccncc2)n1N` : reported viability = 97.5

Record summary for `COc1cccc(C(=O)Nc2cc(=O)n(C)c(=O)n2C)c1OC` : reported viability = 105

Record summary for `Cn1c(=O)cc(N2CCCCC2)[nH]c1=O` : reported viability = 111

Record summary for `Cc1cc(C)nc(SCC(=O)Oc2ccc3oc(=O)cc(C)c3c2)n1` : reported viability = 97

Record summary for CC1c2[nH]c3ccccc3c2CCN1S(C)(=O)=O (centres undefined) : reported viability = 98.4

Record summary for `Cn1c(NC(=O)Cc2cccs2)cc(=O)n(C)c1=O` : reported viability = 105

Record summary for `COCCN1Cc2cccc(C(=O)NCc3ccccn3)c2C1=O` : reported viability = 103

Record summary for COc1ccc2c(c1)CC(C1(O)C(=O)N(C)c3ccccc31)C2=O (centres undefined) : reported viability = 94

Record summary for `O=C(CN(C1CCCCC1)S(=O)(=O)c1ccc(F)cc1)NCCCO` : reported viability = 103

Record summary for O=C(Nc1ccc(Br)cc1F)C1CCCN(S(=O)(=O)c2cnc[nH]2)C1 (centres undefined) : reported viability = 92.2

Record summary for CC1C(c2ccccc2)=[N+]([O-])C2(CCCC2)N1O (centres undefined) : reported viability = 97

Record summary for `COc1cc(O)c(NC(C)=O)c2nonc12` : reported viability = 101

Record summary for `Cc1ccc(S(=O)(=O)Cc2ccc(C(=O)N3CCN(c4ccccn4)CC3)o2)cc1` : reported viability = 87.1

Record summary for `COc1cccc(OCCn2c(C)c(/C=N/n3cnnc3)c3ccccc32)c1` : reported viability = 99.3

Record summary for `CCOC(=O)CSc1ccc2nnc(-c3ccccc3)n2n1` : reported viability = 108

Record summary for `CCCSc1nnc2nc(C)cc(C)n12` : reported viability = 103

Record summary for `CCOC(=O)c1ccc(NC(=O)c2nn(C)cc2Br)cc1` : reported viability = 101

Record summary for `Cc1cccc(NC(=O)Cn2cnc3sc(C)c(S(=O)(=O)N4CCC(C)CC4)c3c2=O)n1` : reported viability = 95.2

Record summary for `COc1ccc(S(=O)(=O)N2CCN(c3c(C)cccc3C)CC2)cc1OC` : reported viability = 78.2

Record summary for `c1ccc(OCc2nn3c(-c4ccccn4)nnc3s2)cc1` : reported viability = 104

Record summary for CN(CCNC(=O)C1(O)c2ccccc2NC(=O)N1c1ccccc1)Cc1ccccc1 (centres undefined) : reported viability = 95.8

Record summary for `Cc1ccn2cc(CCNC(=O)c3ccc(Br)o3)nc2c1` : reported viability = 93.8

Record summary for O=C(NCCCN1CCOCC1)C1CCC(=O)N1CCc1ccccc1 (centres undefined) : reported viability = 103

Record summary for `Cn1c(Cn2c(=O)sc3ccccc32)nnc1SCC(=O)Nc1cccc(Cl)c1` : reported viability = 99.6

----------
Kindly supply the reported growth inhibition values for the records listed here.
- MEASUREMENT PROTOCOL: Restrictive medium S. cerevisiae growth inhibition, OD615, pilot screen of yeast lifespan reduction project, restrictive growth control (AID 706);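 note: modified DeaD lifespan yeast strain shifted to restrictive glucose medium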
- EXPERIMENTAL CONTEXT: OD615, 48 h, at 10 µM, active compounds read high
Numeric answer only, unit % assumed.

Record summary for `O=C(NCc1ccco1)c1ccc(S(=O)(=O)c2cccc(S(=O)(=O)N3CCOCC3)c2)cc1` : reported growth inhibition = 2.85

Record summary for CC(C)CC(NS(=O)(=O)c1ccc2c(c1)oc(=O)n2C)C(=O)NCc1cccnc1 (stereo unspecified) : reported growth inhibition = 15.8

Record summary for `O=C(NCCCN1CCOCC1)c1cc(-c2ccc3c(c2)OCO3)nc2ccccc12` : reported growth inhibition = -7.51

Record summary for Cc1ccc(C2/C(=C(/O)c3ccc(Cl)cc3)C(=O)C(=O)N2CC2CCCO2)o1 (stereo unspecified) : reported growth inhibition = 12.5

Record summary for `CC(C)C(=O)Nc1ccc(Nc2ccccc2)cc1` : reported growth inhibition = -8.34

Record summary for `COCCNC(=O)CN1C(=O)CC(C)(C)S(=O)(=O)c2ccccc21` : reported growth inhibition = -10.2

Record summary for `CCN(Cc1ccccc1)C(=O)Cn1cc2c(n1)CCCC2` : reported growth inhibition = -2.12

Record summary for `Cc1noc(/C=C/N(C)C)c1S(=O)(=O)N1CCN(c2ccccc2)CC1` : reported growth inhibition = -3.67

Record summary for `COc1ccc(CCNC(=O)CN2CCOc3ccccc32)cc1OC` : reported growth inhibition = 13.9

Record summary for `CCSc1nnc(NC(=O)c2c(-c3ccccc3Cl)noc2C)s1` : reported growth inhibition = 2.59

Record summary for `COc1ccc(Br)cc1S(=O)(=O)N1CCN=C1C` : reported growth inhibition = -18.3

----------
- MEASUREMENT PROTOCOL: growth suppression of beta-catenin knockout HCT116, pilot screen, human colon tumor cells (AID 823);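 note: 0% = wells killed by 20 µM Hyamine and 100% = untreated DMSO cell wells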
- EXPERIMENTAL CONTEXT: CellTiter-Glo, 60 h, at 10 µM, active compounds read low
Records with an inconclusive call do not appear.
MEASUREMENT NAME: viability (%)
Numeric answer only, unit % assumed.

Record summary for `Cc1c(Nc2nc3ccccc3nc2N2CCN(c3ccccc3)CC2)c(=O)n(-c2ccccc2)n1C` : reported viability = 69

Record summary for `CC1(C)Cc2c(sc3nc(-c4cccs4)n(N)c(=O)c23)CO1` : reported viability = 42.1

Record summary for `O=C(COc1ccccc1)N1CCN(S(=O)(=O)c2cccs2)CC1` : reported viability = 94

Record summary for `Cc1ccc2oc(Nc3nc(C)cc(C)n3)nc2c1` : reported viability = 102

Record summary for `O=C(CSc1nnc(Cc2cc(=O)[nH]c(=O)[nH]2)n1-c1ccc(F)cc1)NC1CCCC1` : reported viability = 105

Record summary for `Cn1c(NC(=O)c2ccccc2Br)cc(=O)n(C)c1=O` : reported viability = 105

Record summary for `C=CCOn1c(=O)c(C)[n+]([O-])c2ccccc21` : reported viability = 105

Record summary for `CCNCCNC(=O)c1c(O)c2cccc3c2n(c1=O)CCC3` : reported viability = 82.6

Record summary for `CC(C)NC(=O)NC(=O)COc1ncnc2sccc12` : reported viability = 97.6

Record summary for `Cc1cc(C(F)(F)F)n2ncc(C(=O)O)c2n1` : reported viability = 98.3

Record summary for `CCOc1ccccc1N1CCN(S(=O)(=O)CC)CC1` : reported viability = 94.9

----------
- MEASUREMENT PROTOCOL: growth suppression of beta-catenin knockout HCT116, pilot screen, human colon tumor cells (AID 823);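 note: 0% = wells killed by 20 µM Hyamine and 100% = untreated DMSO cell wells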
- EXPERIMENTAL CONTEXT: CellTiter-Glo, 60 h, at 10 µM, active compounds read low
Results filed as inconclusive are left out.
MEASUREMENT NAME: viability (%)
Numeric answer only, unit % assumed.

Record summary for O=C(O)C1CCCN1S(=O)(=O)c1cc(Cl)ccc1Cl (stereo unspecified) : reported viability = 92.5

Record summary for CC(c1ccccc1)C(CC(=O)O)C(=O)NC1CCCCC1 (stereo unspecified) : reported viability = 98.2

Record summary for `Cc1cc(-c2ccco2)n(CC(=O)NCCN(C)C)n1` : reported viability = 98.8

Record summary for CC(=O)N(c1ccccc1)C1SC(=O)N(c2ccccc2)C1=O (stereo unspecified) : reported viability = 97.9

Record summary for `CC(=O)c1cccc(NC(=O)c2cc3ccccn3n2)c1` : reported viability = 99

Record summary for COC(=O)c1nc2n(n1)C(c1cccc(Cl)c1)C1=C(CCCC1=O)N2 (stereo unspecified) : reported viability = 98.1

----------
- MEASUREMENT PROTOCOL: inhibitors of the yeast RAM network, pilot screen, dse1pr::URA3 reporter, 5-FOA selection (AID 869);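 note: 0% = DMSO wells with no growth and 100% = 10 µM 1-NA-PP1 with full growth; RAM network block rescues cells from 5-FOA so hits raise OD615 growth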
- EXPERIMENTAL CONTEXT: S. cerevisiae dse1pr::URA3 5-FOA growth, OD615, 2 d; at 10 µM; active compounds read high; strain carries analog-sensitive mutant Cbk1 kinase
MEASUREMENT NAME: inhibition (%)
Numeric answer only, unit % assumed.

Record summary for `Cc1ccccc1Cn1c(=O)[nH]c2ccccc21` : reported inhibition = 1.9

Record summary for O=C(Nc1nnc(-c2ccc3c(c2)CCCC3)o1)C1COc2ccccc2O1 (stereo unspecified) : reported inhibition = 0.315

Record summary for `CC(C)n1c(NCc2cc(Cl)ccc2O)nc2ccccc21` : reported inhibition = -0.06

Record summary for `Cc1cc(C)c(S(=O)(=O)N2CCN(CCO)CC2)c(C)c1` : reported inhibition = 1.64

Record summary for `N#CCCn1c(C(C#N)(CCC#N)CCC#N)nc2ccccc21` : reported inhibition = 1.6

Record summary for CC(c1ccccc1)C(CC(=O)O)C(=O)NC1CCCCC1 (stereo unspecified) : reported inhibition = 1.54

Record summary for `COc1ccc(S(=O)(=O)N2CCC(C(=O)NCCC3=CCCCC3)CC2)cc1OC` : reported inhibition = 1.67

Record summary for `c1ccc(CN2CCN(c3nc4ccccc4n4cnnc34)CC2)cc1` : reported inhibition = 0.625

Record summary for `COc1cccc(OCC(=O)N(Cc2nc(-c3ccc(Cl)cc3)no2)C(C)C)c1` : reported inhibition = 3.32

Record summary for `O=C(CSc1nnc(Cn2c(=O)sc3ccccc32)n1-c1ccccc1)N1CCCCCC1` : reported inhibition = 2.22

Record summary for `CCCC(=O)c1c(NC)cc(C)oc1=O` : reported inhibition = 0.62
